Listed next: entries and their corresponding IC50.
target-of-assay: recombinant human MGAT2 (Homo sapiens (Human), UniProt Q3SYC2)
Sequence (Q3SYC2 whole entry): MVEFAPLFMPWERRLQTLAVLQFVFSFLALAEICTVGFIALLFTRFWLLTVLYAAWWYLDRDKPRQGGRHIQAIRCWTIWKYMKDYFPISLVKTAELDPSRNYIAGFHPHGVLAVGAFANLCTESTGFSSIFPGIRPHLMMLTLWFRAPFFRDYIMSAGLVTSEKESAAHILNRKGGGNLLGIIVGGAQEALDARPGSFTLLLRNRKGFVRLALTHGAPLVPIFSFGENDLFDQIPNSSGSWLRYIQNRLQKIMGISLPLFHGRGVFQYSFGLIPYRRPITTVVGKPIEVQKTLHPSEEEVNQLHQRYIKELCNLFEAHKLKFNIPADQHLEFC
measurement-protocol: Measurement of human MGAT2 inhibitory activity
Type: biochemical
setup-conditions: read-out: IC50 (concentration exhibiting 50% enzyme inhibition), Table 52
readout-label: IC50 (nM)

| compound | target-of-assay | readout-label | recorded-measurement |
| --- | --- | --- | --- |
| O=C1N[C@@]2(CCc3cc(OCC(F)(F)F)ccc32)Cc2nn(CCC3CC3)c(CNS(=O)(=O)C3CCCC3)c21 | recombinant human MGAT2 (Homo sapiens (Human), UniProt Q3SYC2) | IC50 | 730 |
| CCc1ccc(-n2nc3c(c2NC(=O)CS(C)(=O)=O)C(=O)N[C@@]2(CCc4cc(OCCCC(F)(F)F)ccc42)C3)cc1 | recombinant human MGAT2 (Homo sapiens (Human), UniProt Q3SYC2) | IC50 | 4.1 |
| CS(=O)(=O)CC(=O)Nc1c2c(nn1-c1ccc(C3CC3)cc1)C[C@]1(CCc3cc(OCCCC(F)(F)F)ccc31)NC2=O | recombinant human MGAT2 (Homo sapiens (Human), UniProt Q3SYC2) | IC50 | 11 |
| CC(C)(O)C(=O)NCc1c2c(nn1CCC1CC1)C[C@]1(CCc3cc(OCC(F)(F)F)ccc31)NC2=O | recombinant human MGAT2 (Homo sapiens (Human), UniProt Q3SYC2) | IC50 | 180 |
| CCCC(C)n1nc2c(c1NC(=O)CS(C)(=O)=O)C(=O)N[C@@]1(CCc3cc(OCC(F)(F)F)ccc31)C2 (some centres unmarked) | recombinant human MGAT2 (Homo sapiens (Human), UniProt Q3SYC2) | IC50 | 460 |
| O=C1N[C@@]2(CCc3cc(OCC(F)(F)F)ccc32)Cc2nn(CCC3CC3)c(CNC(=O)C3(C(F)(F)F)CCC3)c21 | recombinant human MGAT2 (Homo sapiens (Human), UniProt Q3SYC2) | IC50 | 130 |
| CS(=O)(=O)CC(=O)Nc1c2c(nn1-c1cccc3c1CCC3)C[C@]1(CCc3cc(OCCCC(F)(F)F)ccc31)NC2=O | recombinant human MGAT2 (Homo sapiens (Human), UniProt Q3SYC2) | IC50 | 79 |
| CS(=O)(=O)CC(=O)Nc1c2c(nn1CCCCC(F)(F)F)C[C@]1(CCc3cc(OCC(F)(F)F)ccc31)NC2=O | recombinant human MGAT2 (Homo sapiens (Human), UniProt Q3SYC2) | IC50 | 17 |
| O=C1N[C@@]2(CCc3cc(OCCCC(F)(F)F)ccc32)Cc2nn(CCC3CC3)c(-c3nn[nH]n3)c21 | recombinant human MGAT2 (Homo sapiens (Human), UniProt Q3SYC2) | IC50 | 8.82 |
| O=C1N[C@@]2(CCc3cc(OCC(F)(F)F)ccc32)Cc2nn(CCC3CC3)c(C(=O)NCCO)c21 | recombinant human MGAT2 (Homo sapiens (Human), UniProt Q3SYC2) | IC50 | 570 |
| O=C(Nc1c2c(nn1CCC1CC1)C[C@]1(CCc3cc(OCC(F)(F)F)ccc31)NC2=O)c1cccnn1 | recombinant human MGAT2 (Homo sapiens (Human), UniProt Q3SYC2) | IC50 | 240 |
| O=C(Nc1c2c(nn1CCC1CC1)C[C@]1(CCc3cc(OCC(F)(F)F)ccc31)NC2=O)c1ccncc1 | recombinant human MGAT2 (Homo sapiens (Human), UniProt Q3SYC2) | IC50 | 16 |
| CS(=O)(=O)CC(=O)Nc1c2c(nn1CCC1CC1)C[C@]1(CCc3cc(F)cc(F)c31)NC2=O | recombinant human MGAT2 (Homo sapiens (Human), UniProt Q3SYC2) | IC50 | 39 |
| CS(=O)(=O)CC(=O)Nc1c2c(nn1-c1ccc(F)cc1)C[C@]1(CCOc3cc(OCC(F)(F)F)ccc31)NC2=O | recombinant human MGAT2 (Homo sapiens (Human), UniProt Q3SYC2) | IC50 | 2.5 |
